# Tested on: A375 cells
# ASSAY_INFO: Tumor cell line proliferation assay (CellTiter Glo), A375
# Assay type: cell-based
# TEST_PARAMETERS: Homo sapiens, A-375, 96 h, read-out: A375 (V599E) Cell Proliferation IC50
Record form. Attribute: IC50. Fill in for each entry.

QUERY: IC50 for CC(c1ccccc1)c1cc2cc3c(-c4ccnc(N5CCOCC5)c4)n[nH]c3cc2[nH]c1=O (centres unmarked) ?
RESULT: ≤ 250 nM

QUERY: IC50 for Cc1cc(-c2n[nH]c3cc4c(cc23)CN(C2CN(Cc3ccccc3)CC(F)(F)C2)C(=O)N4)ccn1 (centres unmarked) ?
RESULT: 250 to 1000 nM

QUERY: IC50 for CC(c1ccccc1)c1cc2cc3c(-c4cccnc4)n[nH]c3cc2[nH]c1=O (centres unmarked) ?
RESULT: 250 to 1000 nM

QUERY: IC50 for "Cc1cc(-c2n[nH]c3cc4c(cc23)CN([C@@H]2CCCOC2)C(=O)N4)ccn1" ?
RESULT: > 1000 nM

QUERY: IC50 for "Cc1cc(-c2n[nH]c3cc4c(cc23)CN([C@H](C)c2ccc(Cl)cc2)C(=O)N4)ccn1" ?
RESULT: 250 to 1000 nM

QUERY: IC50 for Cc1cc(-c2n[nH]c3cc4c(cc23)CN([C@@H]2CN(C)C[C@H]2c2ccccc2F)C(=O)N4)cc(C)n1 (racemic) ?
RESULT: ≤ 250 nM

QUERY: IC50 for "Cc1cc(-c2n[nH]c3cc4c(cc23)CN([C@@H]2CCCN(Cc3cccc(F)c3)C2)C(=O)N4)ccn1" ?
RESULT: ≤ 250 nM

QUERY: IC50 for "Cc1cc(-c2n[nH]c3cc4c(cc23)CN(C2CCC(F)(F)CC2)C(=O)N4)ccn1" ?
RESULT: 250 to 1000 nM

QUERY: IC50 for "Cc1cc(-c2n[nH]c3cc4c(cc23)CN([C@@H]2CCCN(CCC(C)(C)C)C2)C(=O)N4)ccn1" ?
RESULT: 250 to 1000 nM

QUERY: IC50 for "Cc1cc(-c2n[nH]c3cc4[nH]c(=O)c(Cc5ccc(F)cc5)cc4cc23)ccn1" ?
RESULT: 250 to 1000 nM

QUERY: IC50 for "Cc1cc(-c2n[nH]c3cc4c(cc23)CN([C@H](C)c2ccc(C#N)cc2)C(=O)N4)ccn1" ?
RESULT: 250 to 1000 nM

QUERY: IC50 for "COc1ccc(-c2n[nH]c3cc4c(cc23)CN(Cc2ccc(F)c(Cl)c2)C(=O)N4)cn1" ?
RESULT: 250 to 1000 nM

QUERY: IC50 for Cc1cc(-c2n[nH]c3cc4[nH]c(=O)c(C5CCCN(Cc6ccccc6)C5)cc4cc23)ccn1 (centres unmarked) ?
RESULT: ≤ 250 nM

QUERY: IC50 for "Cc1cc(-c2n[nH]c3cc4c(cc23)CN(Cc2cscn2)C(=O)N4)ccn1" ?
RESULT: > 1000 nM

QUERY: IC50 for Cc1cc(-c2n[nH]c3cc4c(cc23)CN(C2CN(Cc3cc(F)cc(F)c3)CC(F)(F)C2)C(=O)N4)ccn1 (centres unmarked) ?
RESULT: > 1000 nM

QUERY: IC50 for "Cc1cc(-c2n[nH]c3cc4c(cc23)CN([C@@H]2CCCN(Cc3c(F)cccc3F)C2)C(=O)N4)ccn1" ?
RESULT: ≤ 250 nM

QUERY: IC50 for Cc1cc(-c2n[nH]c3cc4c(cc23)CN([C@@H]2CCCN(C(C)c3cccc(Cl)c3)C2)C(=O)N4)ccn1 (some centres unmarked) ?
RESULT: 250 to 1000 nM
